- method: Unbound brain to plasma concentration ratio in mouse at 1 mg/kg, iv after 5 mins
- Assay type: ADME, organism-based
- cond: read-out: K(p,uu,brain)
value.type: Kp uu at 5 min
Just the number, please, no unit after it.

Req: Recall and state the measured Kp uu at 5 min for CC(=O)c1c(C)c2cnc(Nc3ccc(N4CCNCC4)cn3)nc2n(C2CCCC2)c1=O [PALBOCICLIB] .
Resp: 0.01

###

- method: Half life in ICR mouse at 5 mg/kg, po administered as single dose by LC-MS/MS analysis
- Format: ADME, organism-based
- cond: in vivo
value.type: half-life (min)
Form entry: value (min) — number only.

Req: Recall and state the measured half-life for CC1=Nc2c(F)cc(-c3nc(Nc4ccc(C5CCN(C)CC5)cn4)ncc3F)cc2C12CCCC2 [CROZBACICLIB] .
Resp: 503

###

Hi there, I'd appreciate the recorded AUC(0-t) at 24 h for every entry that follows.
- method: AUC (0 to 24 hrs) in Sprague-Dawley rat at 2 mg/kg, iv administered as single dose by LC-MS/MS analysis
- Assay type: ADME, organism-based
- Set-up: dose 2 mg/kg, time < 24 hr, route intravenous
- cond: in vivo
Form entry: value (ng·h/mL) — number only.

Req: Recall and state the measured AUC(0-t) at 24 h for `CCC1(CC)C(C)=Nc2c(F)cc(-c3nc(Nc4ccc(N5CCNCC5)cn4)ncc3F)cc21` .
Resp: 256

Req: Recall and state the measured AUC(0-t) at 24 h for `CC1=Nc2ccc(-c3nc(Nc4ccc(N5CCNCC5)cn4)ncc3F)cc2C12CCCC2` .
Resp: 1140

Req: Recall and state the measured AUC(0-t) at 24 h for `CCN1CCC(c2ccc(Nc3ncc(F)c(-c4cc(F)c5c(c4)C4(CCCC4)C(C)=N5)n3)nc2)CC1` .
Resp: 2250

Req: Recall and state the measured AUC(0-t) at 24 h for CCC1(C)C(C)=Nc2c(F)cc(-c3nc(Nc4ccc(N5CCNCC5)cn4)ncc3F)cc21 (stereo not drawn) .
Resp: 256

Req: Recall and state the measured AUC(0-t) at 24 h for CCN1CCN(Cc2ccc(Nc3ncc(F)c(-c4cc(F)c5c(c4)C(C)(CC)C(C)=N5)n3)nc2)CC1 (stereo not drawn) .
Resp: 685

Req: Recall and state the measured AUC(0-t) at 24 h for `CC1=Nc2c(F)cc(-c3nc(Nc4ccc(N5CCN(C)CC5)cn4)ncc3F)cc2C12CCCC2` .
Resp: 761

Req: Recall and state the measured AUC(0-t) at 24 h for `CC1=Nc2c(F)cc(-c3nc(Nc4ccc(N5CCNCC5)cn4)ncc3F)cc2C12CCCC2` .
Resp: 949

Req: Recall and state the measured AUC(0-t) at 24 h for CCC1(C)C(C)=Nc2c(F)cc(-c3nc(Nc4ccc(C5CCN(C)CC5)cn4)ncc3F)cc21 (stereo not drawn) .
Resp: 404

###

- method: 1-octanol-phosphate buffer distribution coefficient, log D of the compound at pH 7.4 after 1 hr by LC-MS/MS method
- Format: physicochemical
value.type: logD at 1 h
Just the number, please, no unit after it.

Req: Recall and state the measured logD at 1 h for `CC1=Nc2c(F)cc(-c3nc(Nc4ccc(C5CCN(C)CC5)cn4)ncc3F)cc2C12CCCC2` .
Resp: 3.49

###

Hi there, I'd appreciate the recorded log10 of AUC(0-t) at 24 h for every entry that follows.
- method: AUC (0 to 24 hrs) in Sprague-Dawley rat at 2 mg/kg, iv administered as single dose by LC-MS/MS analysis
- Assay type: ADME, organism-based
- Design: dose 2 mg/kg, time < 24 hr, route intravenous
- cond: in vivo
Friendly reminder: values = log10 of AUC(0-t) at 24 h, unit ng·h/mL.

Req: Recall and state the measured log10 of AUC(0-t) at 24 h for `CCN1CCN(c2ccc(Nc3ncc(F)c(-c4ccc5c(c4)C4(CCCC4)C(C)=N5)n3)nc2)CC1` .
Resp: 3.28

Req: Recall and state the measured log10 of AUC(0-t) at 24 h for `CC1=Nc2c(F)cc(-c3nc(Nc4ccc(C5CCN(C)CC5)cn4)ncc3F)cc2C12CCCC2` .
Resp: 2.95

Req: Recall and state the measured log10 of AUC(0-t) at 24 h for `CCC1(CC)C(C)=Nc2c(F)cc(-c3nc(Nc4ccc(N5CCN(C)CC5)cn4)ncc3F)cc21` .
Resp: 2.31

Req: Recall and state the measured log10 of AUC(0-t) at 24 h for `CCN1CCN(c2ccc(Nc3ncc(F)c(-c4cc(F)c5c(c4)C4(CCCC4)C(C)=N5)n3)nc2)CC1` .
Resp: 3.32

Req: Recall and state the measured log10 of AUC(0-t) at 24 h for CCC1(C)C(C)=Nc2c(F)cc(-c3nc(Nc4ccc(N5CCN(C)CC5)cn4)ncc3F)cc21 (stereo not drawn) .
Resp: 2.70

Req: Recall and state the measured log10 of AUC(0-t) at 24 h for `CC1=Nc2c(F)cc(-c3nc(Nc4ccc(C5CCNCC5)cn4)ncc3F)cc2C12CCCC2` .
Resp: 3.08

Req: Recall and state the measured log10 of AUC(0-t) at 24 h for `CC1=Nc2ccc(-c3nc(Nc4ccc(N5CCN(C)CC5)cn4)ncc3F)cc2C12CCCC2` .
Resp: 2.65

Req: Recall and state the measured log10 of AUC(0-t) at 24 h for `CCN1CCN(Cc2ccc(Nc3ncc(F)c(-c4cc(F)c5c(c4)C4(CCCC4)C(C)=N5)n3)nc2)CC1` .
Resp: 2.83

###

- study.target: CDK6/cyclin D3 (Homo sapiens, UniProt Q00534)
- Sequence (P30281 whole entry): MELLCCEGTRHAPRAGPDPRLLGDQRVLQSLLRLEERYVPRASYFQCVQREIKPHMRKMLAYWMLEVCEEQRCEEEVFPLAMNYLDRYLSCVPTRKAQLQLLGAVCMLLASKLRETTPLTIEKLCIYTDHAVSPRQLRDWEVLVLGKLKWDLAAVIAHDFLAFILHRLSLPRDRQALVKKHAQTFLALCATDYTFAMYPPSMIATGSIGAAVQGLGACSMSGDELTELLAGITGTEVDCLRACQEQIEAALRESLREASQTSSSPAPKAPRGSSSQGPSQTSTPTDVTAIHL
- Sequence (Q00534 whole entry): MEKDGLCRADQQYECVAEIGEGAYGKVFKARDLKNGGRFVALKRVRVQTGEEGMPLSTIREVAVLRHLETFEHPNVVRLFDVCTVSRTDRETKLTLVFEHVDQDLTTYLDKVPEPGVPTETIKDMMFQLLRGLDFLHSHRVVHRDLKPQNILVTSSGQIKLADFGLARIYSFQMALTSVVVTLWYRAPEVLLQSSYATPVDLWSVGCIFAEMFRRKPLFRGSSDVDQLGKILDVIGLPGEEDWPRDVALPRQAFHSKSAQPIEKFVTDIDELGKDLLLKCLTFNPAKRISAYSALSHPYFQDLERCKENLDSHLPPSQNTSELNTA
- method: Inhibition of CDK6/Cyclin-D3 (unknown origin) using histoneH1 as substrate after 90 mins by ADP-Glo assay
- Assay type: protein-complex assay
Hi there, I'd appreciate the recorded log10 IC50 for every entry that follows.
Friendly reminder: values = log10 of IC50, unit nM.

Req: Recall and state the measured log10 IC50 for `CC1=Nc2c(F)cc(-c3nc(Nc4ccc(C5CCN(CCO)CC5)cn4)ncc3F)cc2C12CCCC2` .
Resp: -0.30

Req: Recall and state the measured log10 IC50 for `CCC1(CC)C(C)=Nc2c(F)cc(-c3nc(Nc4ccc(N5CCNCC5)cn4)ncc3F)cc21` .
Resp: 0.48

Req: Recall and state the measured log10 IC50 for `CCN1CCN(c2ccc(Nc3ncc(F)c(-c4cc(F)c5c(c4)C4(CCCC4)C(C)=N5)n3)nc2)CC1` .
Resp: 1.20

Req: Recall and state the measured log10 IC50 for `CC1=Nc2ccc(-c3nc(Nc4ccc(C5CCNCC5)cn4)ncc3F)cc2C12CCCC2` .
Resp: 0.60

Req: Recall and state the measured log10 IC50 for `CCN1CCC(c2ccc(Nc3ncc(F)c(-c4cc(F)c5c(c4)C4(CCCC4)C(C)=N5)n3)nc2)CC1` .
Resp: 0.60

Req: Recall and state the measured log10 IC50 for CCN1CCN(Cc2ccc(Nc3ncc(F)c(-c4cc(F)c5c(c4)C(C)(CC)C(C)=N5)n3)nc2)CC1 (stereo not drawn) .
Resp: 1.41

Req: Recall and state the measured log10 IC50 for CCC1(C)C(C)=Nc2ccc(-c3nc(Nc4ccc(N5CCN(C)CC5)cn4)ncc3F)cc21 (stereo not drawn) .
Resp: 0.70

Req: Recall and state the measured log10 IC50 for CCN1CCC(c2ccc(Nc3ncc(F)c(-c4ccc5c(c4)C(C)(CC)C(C)=N5)n3)nc2)CC1 (stereo not drawn) .
Resp: 1.28

###

- method: AUC (0 to 24 hrs) in Sprague-Dawley rat at 5 mg/kg, po administered as single dose by LC-MS/MS analysis
- Type: ADME, organism-based
- Set-up: time < 24 hr, dose 5 mg/kg, route oral
- cond: in vivo
Classify: t when AUC(0-t) at 24 h is strictly less than 400 ng·h/mL; f when AUC(0-t) at 24 h is not.

Req: Dear reviewer, please state whether `CC1=Nc2ccc(-c3nc(Nc4ccc(N5CCNCC5)cn4)ncc3F)cc2C12CCCC2` has AUC(0-t) at 24 h strictly beneath 400 ng·h/mL.
Resp: f

Req: Dear reviewer, please state whether `CC1=Nc2ccc(-c3nc(Nc4ccc(N5CCN(C)CC5)cn4)ncc3F)cc2C12CCCC2` has AUC(0-t) at 24 h strictly beneath 400 ng·h/mL.
Resp: t

Req: Dear reviewer, please state whether `CC1=Nc2c(F)cc(-c3nc(Nc4ccc(C5CCN(C)CC5)cn4)ncc3F)cc2C12CCCC2` has AUC(0-t) at 24 h strictly beneath 400 ng·h/mL.
Resp: f

Req: Dear reviewer, please state whether `CC1=Nc2c(F)cc(-c3nc(Nc4ccc(C5CCNCC5)cn4)ncc3F)cc2C12CCCC2` has AUC(0-t) at 24 h strictly beneath 400 ng·h/mL.
Resp: f

Req: Dear reviewer, please state whether `CC1=Nc2c(F)cc(-c3nc(Nc4ccc(N5CCN(C)CC5)cn4)ncc3F)cc2C12CCCC2` has AUC(0-t) at 24 h strictly beneath 400 ng·h/mL.
Resp: t

Req: Dear reviewer, please state whether `CCC1(CC)C(C)=Nc2c(F)cc(-c3nc(Nc4ccc(N5CCNCC5)cn4)ncc3F)cc21` has AUC(0-t) at 24 h strictly beneath 400 ng·h/mL.
Resp: t

Req: Dear reviewer, please state whether `CCN1CCN(Cc2ccc(Nc3ncc(F)c(-c4cc(F)c5c(c4)C4(CCCC4)C(C)=N5)n3)nc2)CC1` has AUC(0-t) at 24 h strictly beneath 400 ng·h/mL.
Resp: f

Req: Dear reviewer, please state whether CCC1(C)C(C)=Nc2c(F)cc(-c3nc(Nc4ccc(N5CCNCC5)cn4)ncc3F)cc21 (centres undefined) has AUC(0-t) at 24 h strictly beneath 400 ng·h/mL.
Resp: t

Req: Dear reviewer, please state whether `CCN1CCC(c2ccc(Nc3ncc(F)c(-c4cc(F)c5c(c4)C4(CCCC4)C(C)=N5)n3)nc2)CC1` has AUC(0-t) at 24 h strictly beneath 400 ng·h/mL.
Resp: f

Req: Dear reviewer, please state whether `CCN1CCN(c2ccc(Nc3ncc(F)c(-c4ccc5c(c4)C4(CCCC4)C(C)=N5)n3)nc2)CC1` has AUC(0-t) at 24 h strictly beneath 400 ng·h/mL.
Resp: f

Req: Dear reviewer, please state whether `CC1=Nc2c(F)cc(-c3nc(Nc4ccc(N5CCNCC5)cn4)ncc3F)cc2C12CCCC2` has AUC(0-t) at 24 h strictly beneath 400 ng·h/mL.
Resp: f

Req: Dear reviewer, please state whether CCC1(C)C(C)=Nc2c(F)cc(-c3nc(Nc4ccc(C5CCN(C)CC5)cn4)ncc3F)cc21 (centres undefined) has AUC(0-t) at 24 h strictly beneath 400 ng·h/mL.
Resp: t

Req: Dear reviewer, please state whether `CCN1CCN(c2ccc(Nc3ncc(F)c(-c4cc(F)c5c(c4)C4(CCCC4)C(C)=N5)n3)nc2)CC1` has AUC(0-t) at 24 h strictly beneath 400 ng·h/mL.
Resp: f

The reported measurements were obtained from ChEMBL document CHEMBL4251601.
